experimental.target: PPARα (Homo sapiens (Human), UniProt Q07869)
Sequence (Q07869 whole entry, species assumed, one chain of several): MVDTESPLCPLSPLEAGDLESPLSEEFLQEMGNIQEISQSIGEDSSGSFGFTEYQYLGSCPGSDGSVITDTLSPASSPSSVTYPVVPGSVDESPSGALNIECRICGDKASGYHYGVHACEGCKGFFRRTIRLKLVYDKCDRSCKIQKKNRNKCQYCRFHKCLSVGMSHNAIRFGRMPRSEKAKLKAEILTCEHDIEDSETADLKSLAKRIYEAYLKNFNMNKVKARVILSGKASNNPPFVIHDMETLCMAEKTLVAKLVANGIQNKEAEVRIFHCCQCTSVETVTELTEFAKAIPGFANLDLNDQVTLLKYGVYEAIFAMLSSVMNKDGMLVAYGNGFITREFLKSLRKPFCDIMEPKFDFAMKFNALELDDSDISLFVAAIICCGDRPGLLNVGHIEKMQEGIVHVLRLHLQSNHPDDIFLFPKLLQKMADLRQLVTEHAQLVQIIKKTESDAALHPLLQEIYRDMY
measurement.notes: Nuclear receptor reporter gene (luciferase) screening model, PPARα activation in HepG2 cells
Format: cell-based
conditions.used: HepG2 reporter gene, 6 concentrations
measured.quantity: EC50 (nM)

Use the examples below as a reference point.
IN: Data request, read-out EC50, for "CCc1cc(OCCc2nc(-c3ccc(C)cc3)oc2C)ccc1CCC(=O)O"
OUT: 1180

IN: Would you mind doing "CCc1cc(OCCc2nc(-c3ccc(C(F)(F)F)cc3)oc2C)ccc1CCC(=O)O" as well?
OUT: 4

IN: Would you mind doing "CCc1cc(OCCc2nc(-c3ccc(C(C)(C)C)cc3)oc2C)ccc1CCC(=O)O" as well?
OUT: 5500

IN: Would you mind doing "CCc1cc(OCCc2nc(-c3ccc(C(N)=O)cc3)oc2C)ccc1CCC(=O)O" as well?
OUT: 1150

IN: Would you mind doing "CCc1cc(OCCc2nc(-c3ccc(C#N)cc3)oc2C)ccc1CCC(=O)O" as well?
OUT: 5250

[A] CCc1cc(OCCc2nc(-c3ccc(-c4nnn[nH]4)cc3)oc2C)ccc1CCC(=O)O
[B] CCc1cc(OCCc2nc(-c3ccc(F)cc3)oc2C)ccc1CCC(=O)O
[C] CCc1cc(OCCc2coc(-c3ccc(C(F)(F)F)cc3)n2)ccc1CCC(=O)O
IN: Parameters: sort_field (EC50), sort_dir (desc). I would appreciate it if you listed the labels in the requested order.
OUT: C, A, B
(C: 5500 nM, A: 2630 nM, B: 29 nM)

* * *

experimental.target: PPARα (Homo sapiens (Human), UniProt Q07869)
measurement.notes: Nuclear receptor reporter gene (luciferase) screening model, PPARα activation in HepG2 cells
Type: cell-based
conditions.used: 10 uM; HepG2; solvent control = 1
measured.quantity: Experiment results (relative activation fold) PPARα

IN: Record lookup: for PPARα (Homo sapiens (Human), UniProt Q07869), what Experiment results (relative activation fold) PPARα belongs to "CCc1cc(OCCc2nc(-c3ccc(C(N)=O)cc3)oc2C)ccc1CCC(=O)O" ?
OUT: 1.81

IN: Would you mind doing "CCc1cc(OCCc2nc(-c3ccc(-c4nnn[nH]4)cc3)oc2C)ccc1CCC(=O)O" as well?
OUT: 1.96

IN: Would you mind doing "CCc1cc(OCCc2coc(-c3ccc(C(F)(F)F)cc3)n2)ccc1CCC(=O)O" as well?
OUT: 1.82

IN: Would you mind doing "CCc1cc(OCCc2nc(-c3ccc([N+](=O)[O-])cc3)oc2C)ccc1CCC(=O)O" as well?
OUT: 1.94

* * *

experimental.target: PPARγ (Homo sapiens (Human))
measurement.notes: Nuclear receptor reporter gene (luciferase) screening model, PPARγ activation in HepG2 cells
Format: cell-based
conditions.used: 5 uM; HepG2; solvent control = 1
measured.quantity: Experiment results (relative activation fold) PPARγ

Use the examples below as a reference point.
IN: Data request, read-out Experiment results (relative activation fold) PPARγ, for "CCc1cc(OCCc2nc(-c3ccc(C(C)(C)C)cc3)oc2C)ccc1CCC(=O)O"
OUT: 4.19

IN: Would you mind doing "CCc1cc(OCCc2nc(-c3ccc(-c4nnn[nH]4)cc3)oc2C)ccc1CCC(=O)O" as well?
OUT: 1.63

IN: Would you mind doing "CCc1cc(OCCc2nc(-c3ccc([N+](=O)[O-])cc3)oc2C)ccc1CCC(=O)O" as well?
OUT: 4.08

IN: Would you mind doing "CCc1cc(OCCc2nc(-c3ccc(C#N)cc3)oc2C)ccc1CCC(=O)O" as well?
OUT: 4.29

IN: Would you mind doing "CCc1cc(OCCc2coc(-c3ccc(C(F)(F)F)cc3)n2)ccc1CCC(=O)O" as well?
OUT: 1.73

[I] CCc1cc(OCCc2nc(-c3ccc(C(F)(F)F)cc3)oc2C)ccc1CCC(=O)O
[II] CCc1cc(OCCc2nc(-c3ccc(C(N)=O)cc3)oc2C)ccc1CCC(=O)O
IN: Please indicate which entry, I or II , has the lower recorded Experiment results (relative activation fold) PPARγ value. Respond with the label that goes with your answer.
OUT: I

[1] CCc1cc(OCCc2nc(-c3ccc(F)cc3)oc2C)ccc1CCC(=O)O
[2] CCc1cc(OCCc2nc(-c3ccc(C)cc3)oc2C)ccc1CCC(=O)O
IN: // compare measured Experiment results (relative activation fold) PPARγ, left 1 , right 2 , return larger Respond with the label that goes with your answer.
OUT: 2

* * *

experimental.target: UniProt:Q03181
measurement.notes: Nuclear receptor reporter gene (luciferase) screening model, PPARδ activation in HepG2 cells
Format: cell-based
conditions.used: 0.1 uM; HepG2; solvent control = 1
measured.quantity: Experiment results (relative activation fold) PPARδ

Use the examples below as a reference point.
IN: Record lookup: for UniProt:Q03181, what Experiment results (relative activation fold) PPARδ belongs to CCc1cc(OCCc2nc(-c3ccc([N+](=O)[O-])cc3)oc2C)ccc1CCC(=O)O [Compound 7] ?
OUT: 2.99

IN: Would you mind doing CCc1cc(OCCc2nc(-c3ccc(C(N)=O)cc3)oc2C)ccc1CCC(=O)O [Compound 9] as well?
OUT: 2.25

IN: Would you mind doing CCc1cc(OCCc2nc(-c3ccc(-c4nnn[nH]4)cc3)oc2C)ccc1CCC(=O)O [Compound 6] as well?
OUT: 1.09

IN: Would you mind doing CCc1cc(OCCc2nc(-c3ccc(F)cc3)oc2C)ccc1CCC(=O)O [Compound 1] as well?
OUT: 1.19

IN: Would you mind doing CCc1cc(OCCc2nc(-c3ccc(C(F)(F)F)cc3)oc2C)ccc1CCC(=O)O [Compound 3] as well?
OUT: 1.22

IN: Would you mind doing CCc1cc(OCCc2coc(-c3ccc(C(F)(F)F)cc3)n2)ccc1CCC(=O)O [Compound 2] as well?
OUT: 1.17

IN: Would you mind doing CCc1cc(OCCc2nc(-c3ccc(C)cc3)oc2C)ccc1CCC(=O)O [Compound 5] as well?
OUT: 3.61

[I] CCc1cc(OCCc2nc(-c3ccc(C#N)cc3)oc2C)ccc1CCC(=O)O [Compound 8]
[II] CCc1cc(OCCc2nc(-c3ccc(C(C)(C)C)cc3)oc2C)ccc1CCC(=O)O [Compound 4]
IN: Please indicate which entry, I or II , has the lower recorded Experiment results (relative activation fold) PPARδ value. Respond with the label that goes with your answer.
OUT: II

* * *

experimental.target: PPARγ (Homo sapiens (Human), UniProt P37231)
Sequence (P37231 whole entry, species assumed, one chain of several): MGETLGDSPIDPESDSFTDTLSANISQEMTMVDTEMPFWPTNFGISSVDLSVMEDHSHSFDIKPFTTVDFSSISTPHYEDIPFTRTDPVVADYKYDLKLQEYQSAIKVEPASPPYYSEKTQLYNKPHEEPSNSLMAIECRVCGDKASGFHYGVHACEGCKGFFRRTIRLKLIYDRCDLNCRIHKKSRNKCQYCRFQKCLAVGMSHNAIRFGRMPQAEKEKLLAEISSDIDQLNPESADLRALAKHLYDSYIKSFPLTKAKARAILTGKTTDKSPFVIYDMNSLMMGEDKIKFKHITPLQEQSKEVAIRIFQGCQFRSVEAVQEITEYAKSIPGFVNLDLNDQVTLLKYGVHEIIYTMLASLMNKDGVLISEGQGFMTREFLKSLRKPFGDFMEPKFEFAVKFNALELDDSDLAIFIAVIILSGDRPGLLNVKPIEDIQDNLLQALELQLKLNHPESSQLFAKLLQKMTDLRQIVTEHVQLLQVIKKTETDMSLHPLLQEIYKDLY
measurement.notes: Nuclear receptor reporter gene (luciferase) screening model, PPARγ activation in HepG2 cells
Assay type: cell-based
conditions.used: 1 uM; HepG2; solvent control = 1
measured.quantity: Experiment results (relative activation fold) PPARγ

IN: Data request, read-out Experiment results (relative activation fold) PPARγ, for "CCc1cc(OCCc2nc(-c3ccc(C(N)=O)cc3)oc2C)ccc1CCC(=O)O"
OUT: 4.34

IN: Would you mind doing "CCc1cc(OCCc2nc(-c3ccc(F)cc3)oc2C)ccc1CCC(=O)O" as well?
OUT: 1.45

IN: Would you mind doing "CCc1cc(OCCc2nc(-c3ccc(C#N)cc3)oc2C)ccc1CCC(=O)O" as well?
OUT: 4.75

IN: Would you mind doing "CCc1cc(OCCc2nc(-c3ccc(C)cc3)oc2C)ccc1CCC(=O)O" as well?
OUT: 3.95

IN: Would you mind doing "CCc1cc(OCCc2nc(-c3ccc([N+](=O)[O-])cc3)oc2C)ccc1CCC(=O)O" as well?
OUT: 3.80

[A] CCc1cc(OCCc2nc(-c3ccc(-c4nnn[nH]4)cc3)oc2C)ccc1CCC(=O)O
[B] CCc1cc(OCCc2nc(-c3ccc(C(C)(C)C)cc3)oc2C)ccc1CCC(=O)O
IN: Please indicate which entry, A or B , has the lower recorded Experiment results (relative activation fold) PPARγ value. Respond with the label that goes with your answer.
OUT: A

* * *

experimental.target: PPARδ (Homo sapiens (Human), UniProt Q03181)
Sequence (Q03181 whole entry, species assumed): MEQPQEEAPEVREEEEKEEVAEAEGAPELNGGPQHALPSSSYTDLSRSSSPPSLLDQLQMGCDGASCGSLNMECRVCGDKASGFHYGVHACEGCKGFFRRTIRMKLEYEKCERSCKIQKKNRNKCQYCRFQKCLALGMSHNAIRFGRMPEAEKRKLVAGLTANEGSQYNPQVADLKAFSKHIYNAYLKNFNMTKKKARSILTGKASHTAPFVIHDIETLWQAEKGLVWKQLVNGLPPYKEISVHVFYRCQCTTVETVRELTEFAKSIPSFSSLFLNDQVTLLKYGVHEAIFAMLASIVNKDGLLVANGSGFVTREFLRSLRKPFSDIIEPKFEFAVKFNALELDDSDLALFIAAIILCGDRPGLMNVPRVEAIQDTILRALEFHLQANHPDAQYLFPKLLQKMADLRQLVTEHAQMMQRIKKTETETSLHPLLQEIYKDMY
Sequence (P19793 whole entry partner, species assumed): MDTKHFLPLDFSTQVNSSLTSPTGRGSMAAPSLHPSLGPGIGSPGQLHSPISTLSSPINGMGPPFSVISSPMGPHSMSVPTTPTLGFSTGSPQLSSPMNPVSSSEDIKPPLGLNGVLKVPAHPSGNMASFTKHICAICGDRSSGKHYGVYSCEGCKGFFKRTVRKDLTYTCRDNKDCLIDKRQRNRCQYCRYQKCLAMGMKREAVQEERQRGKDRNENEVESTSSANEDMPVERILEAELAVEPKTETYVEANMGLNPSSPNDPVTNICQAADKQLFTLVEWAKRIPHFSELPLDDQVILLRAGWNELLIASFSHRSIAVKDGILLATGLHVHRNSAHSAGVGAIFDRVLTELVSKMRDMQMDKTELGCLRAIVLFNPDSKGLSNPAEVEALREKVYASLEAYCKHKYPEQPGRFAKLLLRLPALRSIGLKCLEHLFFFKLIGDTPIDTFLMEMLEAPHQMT
measurement.notes: Nuclear receptor reporter gene (luciferase) screening model, PPARδ activation in HepG2 cells
conditions.used: HepG2 reporter gene, 6 concentrations
Description: Using a reporter gene method, a screening model for screening a nuclear receptor agonist in living cells is designed on the basis of the principal that a nuclear receptor can activate transcription of its downstream gene after being activated. […] The receptor being activated can induce the expression of the luciferase gene, while the amount of generated luciferase can be determined with its luminescent substrate. […]
pEC50: −log10 of the molar value.
measured.quantity: pEC50

Use the examples below as a reference point.
IN: Data request, read-out pEC50, for CCc1cc(OCCc2nc(-c3ccc(C)cc3)oc2C)ccc1CCC(=O)O [Compound 5]
OUT: 8.15

IN: Would you mind doing CCc1cc(OCCc2nc(-c3ccc([N+](=O)[O-])cc3)oc2C)ccc1CCC(=O)O [Compound 7] as well?
OUT: 8.52

IN: Would you mind doing CCc1cc(OCCc2nc(-c3ccc(-c4nnn[nH]4)cc3)oc2C)ccc1CCC(=O)O [Compound 6] as well?
OUT: 5.17

[1] CCc1cc(OCCc2nc(-c3ccc(C#N)cc3)oc2C)ccc1CCC(=O)O [Compound 8]
[2] CCc1cc(OCCc2nc(-c3ccc(F)cc3)oc2C)ccc1CCC(=O)O [Compound 1]
IN: Please indicate which entry, 1 or 2 , has the lower recorded pEC50 value. Respond with the label that goes with your answer.
OUT: 2
(2: 7.54, 1: 8.22)

[I] CCc1cc(OCCc2nc(-c3ccc(C(N)=O)cc3)oc2C)ccc1CCC(=O)O [Compound 9]
[II] CCc1cc(OCCc2nc(-c3ccc(C(C)(C)C)cc3)oc2C)ccc1CCC(=O)O [Compound 4]
IN: // compare measured pEC50, left I , right II , return larger Respond with the label that goes with your answer.
OUT: I
(I: 6.48, II: 6.07)
